# assay-procedure: Example 2: pharmacokinetics of oral dosing in dogs
# Assay type: in vivo
# experimental-setup: both sexes, beagle, dog, plasma, oral capsules, tosylate salt, 10 mg/kg
# Experimental: For control, the dogs are administered empty capsules. For the Compound of Formula I, the dogs are administered normal-release oral capsules. Blood samples are obtained at 0.25 hours, 0.5 hours, 1 hour, 4 hours, 8 hour and 24 hours. […] Cmax, Tmax and area-under-the-curve (AUC, 0-24 hours) are calculated using Phoenix WinNonlin software.
reported-metric: Cmax (ng/mL)
Give your result in ng/mL as a bare value.

## Input Query: Cmax; subject: CN1CCN2c3c(cccc31)[C@@H]1CN(CCCC(=O)c3ccc(F)cc3)CC[C@@H]12 [Compound of Formula I]
## Output 29
